Entry source: PubChem BioAssay AID1159580

- experimental.protocol: chemical genetic growth profiling, strain panel (AID 1159580);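 note: tested at 20 µM; growth read once vehicle control cultures reached saturation at 30 °C; 1 = growth at the plate median or of vehicle wells; lower values mean less growth of the strain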
- experimental.context: S. cerevisiae deletion strains, growth OD, locus YMR277W, strain FCP1, hits give low values
The campaign covered roughly 5,500 compounds. About 2,000 (36%) were called active. Roughly 18% stayed inconclusive and do not appear here. The list shows a part of the results.

# molecule, normalized growth
measured = [
    ("O=C(NNc1ccc(Cl)cc1)c1ccc(F)cc1F", 0.956),
    ("O=C1/C(=C/c2cccs2)COc2ccccc21", 0.909),
    ("N#Cc1ccc(NC(=O)Nc2cccc3ccccc23)cc1", 0.966),
    ("COc1cc(CC/C(C)=N/O)ccc1OCc1ccc(Cl)cc1Cl", 0.979),
    ("O=C1/C(=C/c2ccc(C(F)(F)F)cc2)COc2ccccc21", 0.933),
    ("COc1ccc(CC2CCC(=NOC(=O)c3ccc(C(C)(C)C)cc3)CC2)cc1 (configuration not stated)", 0.976),
    ("NNC(=O)c1csc(Cc2c(Cl)sc3ccc(Cl)cc23)n1", 0.981),
    ("Cc1nn(Cc2nnc(SCc3cccc(C(F)(F)F)c3)o2)c(C)c1Br", 0.974),
    ("COc1ccc(C(=O)NCc2csc3ccc(Cl)cc23)cc1OC", 0.973),
    ("COc1cc(CC/C(C)=N\\O)ccc1OCc1ccc(Cl)c(Cl)c1", 0.968),
    ("O=C(Nc1ccc(F)c(Cl)c1)c1ccccc1O", 0.9),
    ("COc1ccc(CC2CCC(=NOC(=O)c3c(Cl)cccc3Cl)CC2)cc1 (configuration not stated)", 1.02),
]

###

- experimental.protocol: chemical genetic growth profiling, strain panel (AID 1159580);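 note: tested at 20 µM; growth read once vehicle control cultures reached saturation at 30 °C; 1 = growth at the plate median or of vehicle wells; lower values mean less growth of the strain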
- experimental.context: S. cerevisiae deletion strains, growth OD, locus YJL154C, strain vps35
Screen size: about 5,500 compounds; about 2,000 (36%) were called active. Inconclusive results (about 18%) are left out. Cut-off read from the data, not from the text of the source: active = normalized growth mostly below about 0.91 (no sharp cut-off); inconclusive = no clear call, values can overlap the other calls; inactive = mostly above about 0.92. Some of the results follow.
Classes used: active, inactive

# molecule, classification
data = [
    ("CC1=C2[C@H]3OC(=O)[C@@H](C)[C@@H]3CC[C@@]2(C)C=CC1=O", "inactive"),
    ("S=P(N1CC1)(N1CC1)N1CC1", "inactive"),
    ("O=c1cc(-c2ccccc2)oc2cccc(O)c12", "inactive"),
    ("CN1CCN(C2=Nc3ccccc3Oc3ccc(Cl)cc32)CC1", "inactive"),
    ("CC12CC3CC(C)(C1)CC(N)(C3)C2", "inactive"),
    ("Cc1nc2ccccn2c(=O)c1CCN1CCC(C(=O)c2ccc(F)cc2)CC1", "inactive"),
    ("CC(CCC(=O)O)[C@H]1CCC2C3C(C[C@H](O)[C@@]21C)[C@@]1(C)CC[C@@H](O)C[C@H]1C[C@H]3O (some centres not stated)", "inactive"),
    ("NCC(CC(=O)O)c1ccc(Cl)cc1 (configuration not stated)", "inactive"),
    ("COc1c(Cl)ccc(Cl)c1C(=O)O", "inactive"),
    ("O=C(O)CCC(=O)Nc1ccc(S(=O)(=O)Nc2nccs2)cc1", "inactive"),
    ("COc1ccc(C(=O)N2CCCC2=O)cc1", "inactive"),
    ("O=[N+]([O-])c1cccc2cn[nH]c12", "inactive"),
    ("CN[C@@H]1[C@H](OC2[C@H](O[C@H]3[C@H](O)[C@@H](O)[C@H](N=C(N)N)[C@@H](O)[C@@H]3N=C(N)N)O[C@@H](C)[C@]2(O)C=O)O[C@@H](CO)[C@H](O)[C@H]1O (some centres not stated)", "inactive"),
    ("COC(=O)CCCOc1ccc(Cl)cc1Cl", "inactive"),
    ("C=Cc1c(C)c2[n-]c1=Cc1[n-]c(c(CC)c1C)C=c1[n-]c3c(c1C)C(=O)C(C(=O)[O-])C=3c1[n-]c(c(C)c1CCC(=O)[O-])C=2.[Cu] (configuration not stated)", "active"),
    ("NNCCc1ccccc1", "inactive"),
    ("CN(C)CCOC(=O)C(c1ccccc1)C1(O)CCCC1 (configuration not stated)", "inactive"),
    ("c1ccc2c(c1)CN1CCCC1=N2", "inactive"),
    ("Clc1ccc2c(c1)C(N1CCNCC1)=Nc1ccccc1O2", "inactive"),
    ("O=c1cc(-c2ccccc2)oc2cc(O)c(O)c(O)c12", "active"),
    ("CCCCC[C@H](CC(=O)NO)C(=O)N[C@H](C(=O)N1CCC[C@H]1CO)C(C)C", "inactive"),
    ("NC(Cc1ccc(F)cc1)C(=O)O (configuration not stated)", "inactive"),
    ("CC[C@H](CCC(C)[C@H]1CCC2C3CCC4C[C@@H](O)CC[C@]4(C)C3CC[C@@]21C)C(C)C (some centres not stated)", "inactive"),
    ("NC(=O)c1ncn(C2O[C@H](CO)[C@@H](O)[C@H]2O)c1N (some centres not stated)", "inactive"),
    ("c1ccc2nc(N3CCNCC3)ccc2c1", "inactive"),
    ("CC(=O)O[C@H]1C[C@@H](OC(C)=O)C(C)(C)C2CC(=O)[C@]3(C)C(CC[C@@]4(C)[C@H](c5ccoc5)OC(=O)[C@H]5O[C@]543)[C@]21C (some centres not stated)", "inactive"),
    ("O=c1cc(-c2ccccc2)oc2cc(O)c(O)cc12", "inactive"),
    ("CC(CCC(=O)O)[C@H]1CCC2C3C[C@H](O)[C@@H]4C[C@H](O)CC[C@]4(C)C3CC[C@@]21C (some centres not stated)", "inactive"),
    ("COc1cc(C)c(C(=O)Oc2cc(C)c(C(=O)O)c(O)c2C)c(OC)c1C", "inactive"),
    ("O=c1[nH]cnc2[nH]ncc12", "inactive"),
    ("COc1cc(OC)c(OC)cc1C=O", "inactive"),
    ("COc1cc([C@@H]2c3cc4c(cc3[C@H](OC(C)=O)[C@H]3COC(=O)[C@@H]23)OCO4)cc(OC)c1OC", "inactive"),
    ("O=C(O)c1ccccc1C(=O)Nc1ccc(S(=O)(=O)Nc2nccs2)cc1", "inactive"),
    ("CC(CCC(=O)O)[C@H]1CCC2C3CC[C@@H]4CCCC[C@]4(C)C3CC[C@@]21C (some centres not stated)", "inactive"),
    ("C[C@H](N)[C@H](O)c1cccc(O)c1", "inactive"),
    ("O=C(O)CCCOc1ccc(Cl)cc1Cl", "inactive"),
    ("Cc1cc(C)cc(OCC2CNC(=O)O2)c1 (configuration not stated)", "inactive"),
    ("C[C@H](CCC(=O)O)[C@H]1CCC2C3C(CC[C@@]21C)[C@@]1(C)CC[C@@H](O)C[C@H]1C[C@@H]3O (some centres not stated)", "inactive"),
    ("CC(C)CCCC(C)C1CCC2C3CC[C@H]4CCCC[C@]4(C)C3CC[C@]12C (some centres not stated)", "inactive"),
    ("CN(C(=O)CN(CCO)CC(=O)N(C)C(C)(C)Cc1ccccc1)C(C)(C)Cc1ccccc1", "inactive"),
    ("C=C1C2CCC3(C)C(c4ccoc4)OC(=O)CC13OC1CC(OC(C)=O)C(C)(C)C(CC(=O)OC)C12C (configuration not stated)", "inactive"),
    ("CC(=O)OCC(=O)[C@@]1(O)[C@H](OC(C)=O)CC2C3CCC4=CC(=O)C=C[C@]4(C)[C@@]3(F)[C@@H](O)C[C@@]21C (some centres not stated)", "inactive"),
]
